Just for reference, PubChem BioAssay (NCI) is where these values come from.

# Tested on: MCF7 breast
# MEASUREMENT_PROTOCOL: NCI tumour cell line growth inhibition, 48 h
PROPERTY_NAME: TGI (µM)
State just the number; it will be interpreted in µM.

// solved cases for TGI follow
1) CC(=O)OCC(=O)C1(O)C(C)CC2C3C=C(C)C4=Cc5c(cnn5-c5ccccc5)CC4(C)C3C(O)CC21C (stereo not drawn) :: 5.22
2) C=C1C(=O)OC2CC3(C)OC3C3OC3C3=CC(OC3=O)C12 (stereo not drawn) :: 27.6
3) C[n+]1c(-c2ccc(/C=N\NC(=O)c3ccc(C(=O)N/N=C/c4ccc(-c5cn6ccsc6[n+]5C)cc4)cc3)cc2)cn2ccsc21 :: 47.9

Kindly review the next compound as well.
What value of TGI has been recorded for this entry: "COC(=O)c1ccc(NCc2cc(O)ccc2O)cc1O"
21.6
